Could you please report measured IC50 for the items listed next?
Target: one or more of HDAC-1, HDAC-2, HDAC-3, HDAC-4, HDAC-5, HDAC-6, HDAC-7, HDAC-8, HDAC-9, HDAC-10 and HDAC-11
Assay: Inhibition of Histone Deacetylase Enzymatic Activity (Boc-Lys(Ac)-AMC substrate, Fluor-de-Lys developer)
Type: biochemical
Conditions: Table 10; read-out: HDAC Inhibition (IC50 μM) HDAC Enzyme

Q: Report IC50 for "O=C(NO)c1cnc(NC2c3ccccc3-c3ccccc32)nc1" please.
A: 0.1 to 1 µM

Q: Report IC50 for "O=C(NO)c1cnc(NC(c2ccccc2)c2ccccc2)nc1" please.
A: < 0.05 µM

Q: Report IC50 for "O=C(CCCCCC(=O)NC1c2ccccc2C=Cc2ccccc21)NO" please.
A: 0.1 to 1 µM

Q: Report IC50 for "O=C(NO)c1ccc(N2C(=O)c3ccccc3Oc3ccccc32)cc1" please.
A: 0.1 to 1 µM

Q: Report IC50 for "O=C(NO)c1cnc(N2CCn3c(nnc3C(F)(F)F)C2)nc1" please.
A: 0.05 to 0.1 µM

----------
Biological target: one or more of HDAC-1, HDAC-2, HDAC-3, HDAC-4, HDAC-5, HDAC-6, HDAC-7, HDAC-8, HDAC-9, HDAC-10 and HDAC-11
Assay: Inhibition of Histone Deacetylase Enzymatic Activity (Boc-Lys(Ac)-AMC substrate, Fluor-de-Lys developer)
Format: biochemical
Details: Table 8; read-out: HDAC Inhibition (IC50 μM) HDAC Enzyme
MEASURE: IC50

Q: Report IC50 for "O=C(NO)c1cnc(N2CCN(C3=Nc4ccccc4Oc4ccc(Cl)cc43)CC2)nc1" please.
A: < 0.05 µM

Q: Report IC50 for "O=C(NO)c1ccc2c(c1)N=C(c1ccncc1)c1ccccc1O2" please.
A: 0.1 to 1 µM

Q: Report IC50 for "O=C(NO)c1ccc(C2=Nc3cc(Cl)ccc3Nc3ccccc32)cc1" please.
A: 0.05 to 0.1 µM

Q: Report IC50 for O=C(NO)c1ccc(C2Nc3ccccc3Oc3ccccc32)cc1 (stereo not shown) please.
A: < 0.05 µM

----------
Could you please report measured IC50 for the items listed next?
Biological target: one or more of HDAC-1, HDAC-2, HDAC-3, HDAC-4, HDAC-5, HDAC-6, HDAC-7, HDAC-8, HDAC-9, HDAC-10 and HDAC-11
Assay: Inhibition of Histone Deacetylase Enzymatic Activity (Boc-Lys(Ac)-AMC substrate, Fluor-de-Lys developer)
Format: biochemical
Settings: Table 10; read-out: HDAC Inhibition (IC50 μM) HDAC Enzyme

Q: Report IC50 for "O=C(CCCCCN1C(=O)CN=C(c2ccccc2)c2ccccc21)NO" please.
A: 0.1 to 1 µM

Q: Report IC50 for "O=C(NO)c1cnc(NCC2c3ccccc3CCc3ccccc32)nc1" please.
A: < 0.05 µM

Q: Report IC50 for "CN1C(=O)CN=C(c2ccccc2)c2ccc(/C=C/C(=O)NO)cc21" please.
A: 0.1 to 1 µM

Q: Report IC50 for "CN1C(=O)CN=C(c2ccc(C(=O)NO)cc2)c2ccccc21" please.
A: 0.1 to 1 µM

----------
Tested on: HDAC activity in primary mouse cortical cultures
Experiment: Whole-Cell Histone Deacetylase (HDAC) Inhibition Assay in Primary Mouse Cortical Cultures
Assay type: cell-based
Conditions: whole-cell (WC), mouse cortical neurons; Table 8; read-out: HDAC Inhibition (IC50 μM) WC mouse cortical neurons
Could you please report measured IC50 for the items listed next?

Q: Report IC50 for "COCCOc1cccc2c1Oc1ccccc1N=C2c1ccc(C(=O)NO)cc1" please.
A: 1 to 5 µM

Q: Report IC50 for "O=C(NO)c1ccc(C2=Nc3ccccc3Oc3ccccc32)s1" please.
A: 1 to 5 µM

Q: Report IC50 for "O=C(NO)c1ccc(C2=Nc3ccccc3Oc3c(F)cccc32)cc1" please.
A: 5 to 15 µM

----------
Could you please report measured IC50 for the items listed next?
Molecular target: one or more of HDAC-1, HDAC-2, HDAC-3, HDAC-4, HDAC-5, HDAC-6, HDAC-7, HDAC-8, HDAC-9, HDAC-10 and HDAC-11
Assay: Inhibition of Histone Deacetylase Enzymatic Activity (Boc-Lys(Ac)-AMC substrate, Fluor-de-Lys developer)
Format: biochemical
Settings: Table 8; read-out: HDAC Inhibition (IC50 μM) HDAC Enzyme
Protocol: The following protocol is used to assay the compounds of the disclosure. The mixture is pre-incubated for 5 minutes at room temperature. The reaction is started by bringing the temperature to 37° C. and adding 16 μl substrate. Total reaction volume is 50 μl. In the Tables 8, 9 and 10, A≦0.05 μM; 0.05 μM<B≦0.1 μM; 0.1 μM<C≦1 μM; and 1 μM<D≦10 μM.

Q: Report IC50 for "O=C(NO)c1ccc(CNC2=Nc3ccccc3N(C3CC3)c3ccccc32)cc1" please.
A: 0.1 to 1 µM

Q: Report IC50 for "COc1cccc2c1Oc1ccc(C(F)(F)F)cc1N=C2c1ccc(C(=O)NO)cc1" please.
A: 0.1 to 1 µM

Q: Report IC50 for "COc1cccc2c1Oc1ccccc1N=C2c1ccc(C(=O)NO)cc1" please.
A: 0.05 to 0.1 µM

Q: Report IC50 for "O=C(NO)c1ccc(C2=Nc3ccccc3N(CC3CC3)c3ncccc32)cc1" please.
A: 1 to 10 µM

Q: Report IC50 for "O=C(NO)c1ccc(C2=Nc3cccnc3Oc3ccccc32)cc1" please.
A: < 0.05 µM

Q: Report IC50 for "Cc1cccc2c1Oc1ccccc1N=C2c1ccc(C(=O)NO)cc1" please.
A: 0.05 to 0.1 µM

Q: Report IC50 for "O=C(NO)c1ccc(C2=Nc3ccccc3Oc3ccccc32)nc1" please.
A: 0.1 to 1 µM

Q: Report IC50 for "O=C(NO)c1ccc(C2=Nc3ccccc3Oc3ccccc32)c(F)c1" please.
A: 1 to 10 µM

Q: Report IC50 for "CSc1cccc2c1Oc1ccccc1N=C2c1ccc(C(=O)NO)cc1" please.
A: < 0.05 µM

Q: Report IC50 for "O=C(NO)c1ccc(C2=Nc3ccccc3Oc3c2cccc3C(F)(F)F)cc1" please.
A: < 0.05 µM

Q: Report IC50 for "O=C(NO)c1ccc(C2=Nc3ccccc3Cn3cccc32)cc1" please.
A: < 0.05 µM

Q: Report IC50 for "O=C(NO)c1cccc(C2=Nc3ccccc3Oc3ccccc32)c1" please.
A: 0.1 to 1 µM

Q: Report IC50 for "O=C(NO)c1ccc(C2=Nc3ccccc3Oc3c(F)cccc32)cc1" please.
A: 0.1 to 1 µM

Q: Report IC50 for "Cc1ccc2c(c1)Oc1ccccc1N=C2c1ccc(C(=O)NO)cc1" please.
A: < 0.05 µM

Q: Report IC50 for "O=C(NO)c1ccc(C2=Nc3ccccc3Oc3ccccc32)s1" please.
A: < 0.05 µM

Q: Report IC50 for "O=C(NO)c1ccc(C2=Nc3ccccc3N(CCCN3CCOCC3)c3ncccc32)cc1" please.
A: 0.1 to 1 µM

Q: Report IC50 for "O=C(NO)c1ccc(C2=Nc3ccc(C(F)(F)F)cc3Oc3ccccc32)cc1" please.
A: 0.1 to 1 µM

Q: Report IC50 for "CS(=O)(=O)c1cccc2c1Oc1ccccc1N=C2c1ccc(C(=O)NO)cc1" please.
A: < 0.05 µM

Q: Report IC50 for "O=C(NO)c1ccc(C2=Nc3ccccc3Oc3cccc(F)c32)cc1" please.
A: < 0.05 µM

Q: Report IC50 for "O=C(NO)c1ccc(C2=Nc3ccccc3Oc3cc(F)ccc32)cc1" please.
A: 0.1 to 1 µM

Q: Report IC50 for "CCCc1cccc2c1Oc1ccccc1N=C2c1ccc(C(=O)NO)cc1" please.
A: 0.1 to 1 µM

Q: Report IC50 for "CN1CCN(C2=Nc3cc(C(=O)NO)ccc3Oc3ccccc32)CC1" please.
A: 0.1 to 1 µM

Q: Report IC50 for "O=C(NO)c1ccc(C2=Nc3cccc(F)c3Oc3ccccc32)cc1" please.
A: 0.05 to 0.1 µM
